STUDY_SYSTEM: EPHB1 (UniProt P54762)
Sequence (P54762 whole entry, looked up): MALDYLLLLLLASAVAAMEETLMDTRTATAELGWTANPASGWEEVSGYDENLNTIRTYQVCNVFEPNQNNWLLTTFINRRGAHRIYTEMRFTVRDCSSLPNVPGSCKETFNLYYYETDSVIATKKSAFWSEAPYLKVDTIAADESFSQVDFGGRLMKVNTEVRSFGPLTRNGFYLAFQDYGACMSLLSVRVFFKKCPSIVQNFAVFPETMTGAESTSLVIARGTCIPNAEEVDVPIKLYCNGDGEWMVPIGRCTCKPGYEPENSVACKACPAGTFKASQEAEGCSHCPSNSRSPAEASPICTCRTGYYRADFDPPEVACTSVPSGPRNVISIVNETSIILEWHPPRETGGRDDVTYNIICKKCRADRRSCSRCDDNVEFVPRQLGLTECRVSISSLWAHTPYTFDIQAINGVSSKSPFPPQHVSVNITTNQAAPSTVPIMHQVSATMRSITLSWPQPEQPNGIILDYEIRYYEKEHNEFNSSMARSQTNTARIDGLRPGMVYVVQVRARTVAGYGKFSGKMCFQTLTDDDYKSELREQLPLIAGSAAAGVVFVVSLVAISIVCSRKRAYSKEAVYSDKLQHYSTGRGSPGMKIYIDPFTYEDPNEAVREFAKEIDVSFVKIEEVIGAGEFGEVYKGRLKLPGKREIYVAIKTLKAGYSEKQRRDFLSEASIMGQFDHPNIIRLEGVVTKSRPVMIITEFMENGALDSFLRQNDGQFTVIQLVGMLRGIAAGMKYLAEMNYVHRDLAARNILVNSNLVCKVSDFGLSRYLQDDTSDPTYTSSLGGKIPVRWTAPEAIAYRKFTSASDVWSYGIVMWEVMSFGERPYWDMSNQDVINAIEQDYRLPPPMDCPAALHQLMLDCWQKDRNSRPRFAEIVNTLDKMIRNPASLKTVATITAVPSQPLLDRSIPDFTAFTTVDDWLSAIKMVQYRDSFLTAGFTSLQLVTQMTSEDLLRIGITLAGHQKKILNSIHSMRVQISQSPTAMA
METHOD_SUMMARY: phosphorylation enrichment, bacterial display (enrichment ratio); higher = better substrate or ligand; peptides without Tyr show the background;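 further: 11-residue human phosphosite peptides and single-mutation variants displayed on the E. coli surface, counted by deep sequencing, each peptide's frequency after selection divided by its frequency in the unselected input library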;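 further: frequency after pTyr selection over input frequency; kinase dosed for 20-30% of maximal phosphorylation in three min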
Entries annotated with measured phosphorylation enrichment

RLQAAYNLVKR [PFKM_Y103_R100Q] = 0.59
MSRNLYSGDCY [DDR2_Y736_Y740C] = 2.11

get_value(item= QDRTFYESVRT [SPEN_Y633_YF] , readout=phosphorylation enrichment) returns 0.74

get_value(item= LEKRAYICAHP [ACAD9_Y611] , readout=phosphorylation enrichment) returns 0.535

get_value(item= GSSEGYLHMVH [NIPBL_Y247_D246G] , readout=phosphorylation enrichment) returns 0.333

get_value(item= PELINYHQHYS [BTK_Y361_N365Y] , readout=phosphorylation enrichment) returns 1.23

get_value(item= REVPVYIGEDS [SYNM_Y460] , readout=phosphorylation enrichment) returns 0.391

get_value(item= EMFNPYFGLFE [NEDD4L_Y679_YF] , readout=phosphorylation enrichment) returns 2.32

get_value(item= SRLDSYVRSLP [TRAPPC1_Y133] , readout=phosphorylation enrichment) returns 0.606

get_value(item= PSDPSYEDTRE [BMPR1A_Y467_M470T] , readout=phosphorylation enrichment) returns 0.765
